Tested on: PC26
protocolDescription: qHTS profiling for inhibitors of Plasmodium falciparum proliferation (AID 504749); further: nearly all actives have a fitted effect of over 60% in size
testParameters: P. falciparum in erythrocytes, SYBR Green DNA, 72 h; series mostly up to 28.7 µM
Results filed as inconclusive are left out. Activity calls are given as the source filed them. The call rests on the fitted dose curve; in most records, active means well fitted inhibition curve with a large enough effect; inconclusive means small, poorly fitted or top-dose-only effect; inactive means flat fitted curve, though single readings scatter.
Classes used: active, inactive

- compound: "CNC(=O)C(N)CSC(C)C1=C(C)c2cc3[n-]c(cc4nc(cc5[n-]c(cc1n2)c(C)c5CCC(=O)O)C(CCC(=O)O)=C4C)c(C)c3C(C)SCC(N)C(=O)NC.[Fe+2] (stereo unspecified)"
  discreteLabel: "inactive"
- compound: "CC1(C)OC[C@@H]2O[C@@]3(C(=O)O)OC(C)(C)O[C@@H]3[C@@H]2O1"
  discreteLabel: "inactive"
- compound: "C[C@@H]1C(SC2Cn3cnc[n+]3C2)=C(C(=O)[O-])N2C(=O)[C@H]([C@@H](C)O)[C@@H]12 (stereo partly specified)"
  discreteLabel: "inactive"
- compound: "CO[C@H]1/C=C/O[C@@]2(C)Oc3c(C)c(O)c4c(O)c(c5c(c4c3C2=O)NC2(CCN(CC(C)C)CC2)N=5)=NC(=O)/C(C)=C\\C=C\\[C@H](C)[C@H](O)[C@@H](C)[C@@H](O)[C@@H](C)[C@H](OC(C)=O)[C@@H]1C"
  discreteLabel: "active"
- compound: "CCC(C)C(N)C(=O)O (stereo unspecified)"
  discreteLabel: "inactive"
- compound: "CC1C(=O)C(=O)C=CN1C (stereo unspecified)"
  discreteLabel: "inactive"
- compound: "Nc1nc(Cl)nc2c1ncn2[C@@H]1O[C@H](CO)[C@H](O)C1F (stereo partly specified)"
  discreteLabel: "inactive"
- compound: "O=C(O)c1ccc(N[C@@H]2OC[C@@H](O)[C@@H](O)[C@@H]2O)cc1"
  discreteLabel: "inactive"
- compound: "C=CC1CN2CCC1CC2[C@@H](O)c1ccnc2ccc(OC)cc12 (stereo partly specified)"
  discreteLabel: "active"
- compound: "CC(O)C(N)C(=O)O (stereo unspecified)"
  discreteLabel: "inactive"
- compound: "Cc1cnc(NC(=O)C2C(=O)c3ccccc3S(=O)(=O)N2C)s1 (stereo unspecified)"
  discreteLabel: "inactive"
- compound: "CC(=O)NC1[C@H]([C@H](O)[C@H](O)CO)OC(C(=O)O)=C[C@H]1N=C(N)N (stereo partly specified)"
  discreteLabel: "inactive"
- compound: "CC(=O)OCC(=O)[C@@]1(O)CCC2C3CCC4=CC(=O)C=CC4(C)C3C(O)C[C@]21C (stereo partly specified)"
  discreteLabel: "inactive"
- compound: "CC12C=CC(=O)C=C1[C@@H](F)CC1C2C(O)CC2(C)C1CC[C@]2(O)C(=O)CO (stereo partly specified)"
  discreteLabel: "inactive"
- compound: "C[C@H]1[C@@H](OC(=O)CCC(=O)O)OC2OC3(C)CC[C@H]4[C@H](C)CC[C@@H]1[C@@]24OO3 (stereo partly specified)"
  discreteLabel: "active"
- compound: "CCCCCCCCCCCCCCCC(=O)OC[C@H](O)[C@H]1OC[C@@H](O)[C@@H]1O"
  discreteLabel: "inactive"
- compound: "NC(C(=O)O)c1ccc(O)cc1 (stereo unspecified)"
  discreteLabel: "inactive"
- compound: "CCCCC(=O)OCC(=O)[C@]1(O)Cc2c(O)c3c(c(O)c2[C@H](OC2CC(NC(=O)C(F)(F)F)C(O)C(C)O2)C1)C(=O)c1c(OC)cccc1C3=O (stereo partly specified)"
  discreteLabel: "active"
- compound: "CCC(C(=O)C(C)C(O)C(C)CCc1ccc(C)c(O)c1C(=O)O)C1OC(CC)(C2CC[C@@](O)(CC)C(C)O2)CC1C (stereo partly specified)"
  discreteLabel: "active"
- compound: "CC1(C)SC2[C@@H](N=CN3CCCCCC3)C(=O)N2[C@H]1C(=O)O (stereo partly specified)"
  discreteLabel: "inactive"
- compound: "CCC(C(=O)O)C1OC(C(C)C(O)C(C)C(=O)C(CC)C2OC3(C=CC(O)C4(CCC(C)(C5CCC(O)(CC)C(C)O5)O4)O3)C(C)CC2C)C(C)CC1C (stereo unspecified)"
  discreteLabel: "active"
- compound: "CC(=O)C1(O)Cc2c(O)c3c(c(O)c2C(OC2CC(N)C(O)C(C)O2)C1)C(=O)c1c(O)cccc1C3=O (stereo unspecified)"
  discreteLabel: "active"
- compound: "COc1cc([C@H]2c3cc4c(cc3[C@@H](O[C@H]3O[C@H]5CO[C@@H](C)O[C@H]5[C@@H](O)[C@@H]3O)[C@@H]3COC(=O)[C@H]23)OCO4)cc(OC)c1O"
  discreteLabel: "inactive"
- compound: "CC1(C)CC1C(=O)N/C(=C/CCCCSCC(N)C(=O)O)C(=O)O (stereo unspecified)"
  discreteLabel: "inactive"
- compound: "OC[C@@H]1O[C@](CO)(O[C@H]2O[C@H](CO)[C@@H](O)[C@H](O)[C@H]2O)[C@H](O)[C@H]1O"
  discreteLabel: "inactive"
- compound: "Cc1cnc(C(=O)O)cn1"
  discreteLabel: "inactive"
- compound: "Nc1ncn(C2C[C@H](O)[C@@H](CO)O2)c(=O)n1 (stereo partly specified)"
  discreteLabel: "inactive"
- compound: "CO[C@H]1OC2O[C@@]3(C)CC[C@H]4[C@H](C)CC[C@@H]([C@H]1C)[C@@]24OO3 (stereo partly specified)"
  discreteLabel: "active"
- compound: "CC(=O)NC[C@@H]1CN(c2ccc(N3CCOCC3)c(F)c2)C(=O)O1"
  discreteLabel: "inactive"
- compound: "Nc1nc(/C(=C/CC(=O)O)C(=O)NC2C(=O)N3C(C(=O)O)=CCSC23)cs1 (stereo unspecified)"
  discreteLabel: "inactive"
- compound: "CN1[C@H]2CC(OC(=O)[C@H](CO)c3ccccc3)C[C@H]1[C@H]1O[C@H]12 (stereo partly specified)"
  discreteLabel: "inactive"
- compound: "CCCSS/C(CCO)=C(/C)N(C=O)Cc1cnc(C)nc1N"
  discreteLabel: "inactive"
- compound: "C#C[C@@]1(O)CC[C@@H]2[C@H]3CCC4=C/C(=N\\O)CC[C@H]4[C@@H]3CC[C@]21CC"
  discreteLabel: "inactive"
- compound: "CCCC[C@H](O)c1ccccc1"
  discreteLabel: "inactive"
- compound: "O=C1CC[C@H](C(=O)N[C@@H]2C[C@H]2c2ccccc2)N1"
  discreteLabel: "inactive"
- compound: "COc1cccc(OC)c1C(=O)NC1C(=O)N2C1SC(C)(C)C2C(=O)O (stereo unspecified)"
  discreteLabel: "inactive"

* * *

Test system: CP191
protocolDescription: qHTS profiling for inhibitors of Plasmodium falciparum proliferation (AID 504749); further: nearly all actives have a fitted effect of over 60% in size
testParameters: P. falciparum in erythrocytes, SYBR Green DNA, 72 h; series mostly up to 28.7 µM
Inconclusive results are not listed. Calls of active or inactive are those of the source. The call rests on the fitted dose curve; in most records, active means well fitted inhibition curve with a large enough effect; inconclusive means small, poorly fitted or top-dose-only effect; inactive means flat fitted curve, though single readings scatter.
Outcome codes: active, inactive

- compound: "CC(=O)NC1[C@H](O)C[C@@](O)(C(=O)O)O[C@H]1[C@H](O)[C@H](O)CO (some centres not stated)"
  discreteLabel: "inactive"
- compound: "O=C1C(I)=CC(=C(c2cc(I)c(O)c(I)c2)c2ccccc2C(=O)O)C=C1I"
  discreteLabel: "inactive"
- compound: "CCC1OC(=O)C[C@H](O)C(C)[C@@H](O[C@@H]2OC(C)C(O)C(N(C)C)C2O)C(CCN2CC(C)CC(C)C2)CC(C)C(=O)/C=C/C(C)=C\\[C@@H]1COC1OC(C)C(O)C(OC)C1OC (some centres not stated)"
  discreteLabel: "active"
- compound: "CC1(C)CC1C(=O)N/C(=C/CCCCSCC(N)C(=O)O)C(=O)O (configuration not stated)"
  discreteLabel: "inactive"
- compound: "C=CC1CN2CCC1CC2[C@@H](O)c1ccnc2ccc(OC)cc12 (some centres not stated)"
  discreteLabel: "active"
- compound: "CC1=C(/C=C/C(C)=C\\C=C\\C(C)=C\\C=C\\C=C(C)\\C=C\\C=C(C)\\C=C\\C2=C(C)C[C@@H](O)CC2(C)C)C(C)(C)C[C@H](O)C1"
  discreteLabel: "inactive"
- compound: "CN1[C@H]2CC(OC(=O)[C@H](CO)c3ccccc3)C[C@H]1[C@H]1O[C@H]12 (some centres not stated)"
  discreteLabel: "inactive"
- compound: "CN(C)CC/C=C1\\c2ccccc2COc2ccc(CC(=O)O)cc21"
  discreteLabel: "inactive"
- compound: "C#C[C@]1(O)CC[C@H]2[C@H]3[C@H](CC[C@@]21C)C1=C(CC(=O)CC1)C[C@@H]3C"
  discreteLabel: "inactive"
- compound: "CC[C@@H]1/C=C(\\C)C[C@H](C)C[C@H](OC)[C@H]2O[C@@](O)(C(=O)C(=O)N3CCCC[C@H]3C(=O)O[C@H](/C(C)=C/[C@@H]3CC[C@H](Cl)[C@H](OC)C3)[C@H](C)[C@@H](O)CC1=O)[C@H](C)C[C@@H]2OC"
  discreteLabel: "inactive"
- compound: "CCCCCCCCCCCCCCCC(=O)OC[C@H](O)[C@H]1OC[C@@H](O)[C@@H]1O"
  discreteLabel: "inactive"
- compound: "CCCC[C@H]1C(=O)N(c2ccccc2)N(c2ccc(O)cc2)C1=O"
  discreteLabel: "inactive"
- compound: "CCCC(=O)Nc1c(I)cc(I)c(C[C@H](CC)C(=O)O)c1I"
  discreteLabel: "inactive"
- compound: "CC[C@@]1(O)CC2CN(CCc3c([nH]c4ccccc34)[C@](C(=O)OC)(c3cc4c(cc3OC)N(C)C3[C@@](O)(C(=O)OC)C(OC(C)=O)[C@]5(CC)C=CCN6CC[C@@]43C65)C2)C1 (some centres not stated)"
  discreteLabel: "active"
- compound: "CCN(CC)CC(=O)Nc1c(C)cc(C)cc1C"
  discreteLabel: "inactive"
- compound: "CO/N=C(/C(=O)N[C@@H]1C(=O)N2C(C(=O)O)=C(C[n+]3ccc(N)n3CCO)CS[C@H]12)c1csc(N)n1"
  discreteLabel: "inactive"
- compound: "CC(CCC(=O)O)C1CCC2C3C(=O)C[C@@H]4CC(=O)CC[C@@]4(C)C3CC(=O)[C@]12C (some centres not stated)"
  discreteLabel: "inactive"
